Values were extracted from patent US20230406840A1.

pKd: −log10 of the molar value.
Entries below carry reported pKd on hFAP (M39-A757) (Homo sapiens (Human), UniProt Q12884).
Sequence (Q12884 39-757): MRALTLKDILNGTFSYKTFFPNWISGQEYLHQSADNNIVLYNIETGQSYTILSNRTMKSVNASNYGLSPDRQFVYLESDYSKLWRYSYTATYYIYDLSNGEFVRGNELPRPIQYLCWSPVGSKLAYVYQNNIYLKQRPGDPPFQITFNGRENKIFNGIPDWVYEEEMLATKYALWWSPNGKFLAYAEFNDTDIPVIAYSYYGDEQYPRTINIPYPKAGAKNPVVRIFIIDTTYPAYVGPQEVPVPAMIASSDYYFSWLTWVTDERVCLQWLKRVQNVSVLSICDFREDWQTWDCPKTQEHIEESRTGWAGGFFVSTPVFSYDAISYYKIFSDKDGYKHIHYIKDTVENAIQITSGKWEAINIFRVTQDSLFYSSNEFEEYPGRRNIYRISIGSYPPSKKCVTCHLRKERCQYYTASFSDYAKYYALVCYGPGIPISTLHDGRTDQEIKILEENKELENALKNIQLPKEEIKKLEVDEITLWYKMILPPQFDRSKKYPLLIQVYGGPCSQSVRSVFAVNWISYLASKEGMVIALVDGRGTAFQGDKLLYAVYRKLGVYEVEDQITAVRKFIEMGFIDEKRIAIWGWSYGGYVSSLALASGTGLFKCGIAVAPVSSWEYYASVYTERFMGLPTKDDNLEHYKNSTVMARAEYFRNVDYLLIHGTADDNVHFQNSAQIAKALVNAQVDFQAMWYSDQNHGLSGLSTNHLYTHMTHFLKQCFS
observed property: pKd

                                 mol_smiles  observed_property  measured_number
0  N#C[C@@H]1C[C@@H]2C[C@@H]2N1C(=O)CNC(=O)c1ccnc2cc(COC(F)(F)F)ccc12                pKd             7.96
1  N#C[C@@H]1C[C@@H]2C[C@@H]2N1C(=O)CNC(=O)c1ccnc2ccc(C3(C(F)(F)F)CC3)cc12                pKd             7.92
2  COC(C)(C)c1ccc2nccc(C(=O)NCC(=O)N3[C@H](C#N)C[C@@H]4C[C@@H]43)c2c1                pKd             7.70
3  COC(C)(C)c1ccc2c(C(=O)NCC(=O)N3[C@H](C#N)C[C@@H]4C[C@@H]43)ccnc2c1                pKd             8.11
4  N#C[C@@H]1C[C@@H]2C[C@@H]2N1C(=O)CNC(=O)c1ccnc2ccc(CF)cc12                pKd             7.77
5  CC(C)(F)c1ccc2nccc(C(=O)NCC(=O)N3[C@H](C#N)C[C@@H]4C[C@@H]43)c2c1                pKd             7.89
6  CC1(c2ccc3nccc(C(=O)NCC(=O)N4[C@H](C#N)C[C@@H]5C[C@@H]54)c3c2)CC1                pKd             7.96
7  N#C[C@@H]1C[C@@H]2C[C@@H]2N1C(=O)CNC(=O)c1ccnc2cc(CF)ccc12                pKd             8.09

----------
experiment: Metabolic stability in human liver microsomes (HLM); type: in vitro ADME
Assign Yes to entries whose microsomal CLint meets or exceeds 100 µL/min/mg; assign No to the rest.

>>> print(df.to_string())
                                    compound  category_label
 0  CCc1ccc2nc(C)cc(C(=O)NCC(=O)N3[C@H](C#N)C[C@@H]4C[C@@H]43)c2c1             Yes
 1  COC(C)c1ccc2nccc(C(=O)NCC(=O)N3[C@H](C#N)C[C@@H]4C[C@@H]43)c2c1 (some centres unmarked)              No
 2  N#C[C@@H]1C[C@@H]2C[C@@H]2N1C(=O)CNC(=O)c1ccnc2cc(C3CC3)ccc12              No
 3  CCOC1(c2ccc3nccc(C(=O)NCC(=O)N4[C@H](C#N)C[C@@H]5C[C@@H]54)c3c2)CC1             Yes
 4  COc1ccc2c(C(=O)NCC(=O)N3[C@H](C#N)C[C@@H]4C[C@@H]43)cc(C)nc2c1              No
 5  CC(C)(F)c1ccc2c(C(=O)NCC(=O)N3[C@H](C#N)C[C@@H]4C[C@@H]43)ccnc2c1              No
 6  N#C[C@@H]1C[C@@H]2C[C@@H]2N1C(=O)CNC(=O)c1ccnc2cc(CF)ccc12              No
 7  N#C[C@@H]1C[C@@H]2C[C@@H]2N1C(=O)CNC(=O)c1ccnc2cc(COC(F)(F)F)ccc12              No
 8  Cc1cc(C(=O)NCC(=O)N2[C@H](C#N)C[C@@H]3C[C@@H]32)c2cc(I)ccc2n1              No
 9  N#C[C@@H]1C[C@@H]2C[C@@H]2N1C(=O)CNC(=O)c1ccnc2ccc(OCC(F)(F)F)cc12             Yes
10  N#C[C@@H]1C[C@@H]2C[C@@H]2N1C(=O)CNC(=O)c1ccnc2ccc(C3(C(F)(F)F)CC3)cc12             Yes
11  N#C[C@@H]1C[C@@H]2C[C@@H]2N1C(=O)CNC(=O)c1ccnc2ccc(COC(F)(F)F)cc12             Yes
12  N#C[C@@H]1C[C@@H]2C[C@@H]2N1C(=O)CNC(=O)c1ccnc2cc(C(F)F)ccc12              No

----------
# rHeps CLint per record follows
tested on: Rat Hepatocytes (rHep); test: Metabolic stability in rat hepatocytes (rHep); type: in vitro ADME
observed property: rHeps CLint

                                 mol_smiles                  target          result
0  N#C[C@@H]1C[C@@H]2C[C@@H]2N1C(=O)CNC(=O)c1ccnc2ccc(OCC3CC3)cc12  Rat Hepatocytes (rHep)   16 μL/min/1E6
1  N#C[C@@H]1C[C@@H]2C[C@@H]2N1C(=O)CNC(=O)c1ccnc2ccc(C3(C(F)(F)F)CC3)cc12  Rat Hepatocytes (rHep)  150 μL/min/1E6
2  COC(C)(C)c1ccc2c(C(=O)NCC(=O)N3[C@H](C#N)C[C@@H]4C[C@@H]43)ccnc2c1  Rat Hepatocytes (rHep)  5.2 μL/min/1E6
3  CC1(c2ccc3nccc(C(=O)NCC(=O)N4[C@H](C#N)C[C@@H]5C[C@@H]54)c3c2)CC1  Rat Hepatocytes (rHep)   67 μL/min/1E6

----------
system: Human Hepatocytes (hHep); test: Metabolic stability in human hepatocytes (hHep); assay type: in vitro ADME
Could you mark each record yes if its hHep CLint falls strictly under 3 μL/min/1E6, and no if it equals or exceeds it?

In [3]: df
Out[3]:
                                    compound  category_label
 0  Cc1ccc2c(C(=O)NCC(=O)N3[C@H](C#N)C[C@@H]4C[C@@H]43)cc(C)nc2c1             yes
 1  COc1ccc2c(C(=O)NCC(=O)N3[C@H](C#N)C[C@@H]4C[C@@H]43)cc(C)nc2c1             yes
 2  COC(C)c1ccc2c(C(=O)NCC(=O)N3[C@H](C#N)C[C@@H]4C[C@@H]43)ccnc2c1 (stereo partly drawn)              no
 3  CC(C)Oc1ccc2nccc(C(=O)NCC(=O)N3[C@H](C#N)C[C@@H]4C[C@@H]43)c2c1              no
 4  N#C[C@@H]1C[C@@H]2C[C@@H]2N1C(=O)CNC(=O)c1ccnc2ccc(OCC(F)(F)F)cc12              no
 5  N#C[C@@H]1C[C@@H]2C[C@@H]2N1C(=O)CNC(=O)c1ccnc2cc(C3(C#N)CC3)ccc12             yes
 6  N#C[C@@H]1C[C@@H]2C[C@@H]2N1C(=O)CNC(=O)c1ccnc2cc(Br)ccc12             yes
 7  N#C[C@@H]1C[C@@H]2C[C@@H]2N1C(=O)CNC(=O)c1ccnc2ccc(OCC3CC3)cc12              no
 8  Cc1ccc2c(C(=O)NCC(=O)N3[C@H](C#N)C[C@@H]4C[C@@H]43)ccnc2c1             yes
 9  COC(C)c1ccc2nccc(C(=O)NCC(=O)N3[C@H](C#N)C[C@@H]4C[C@@H]43)c2c1 (stereo partly drawn)              no
10  N#C[C@@H]1C[C@@H]2C[C@@H]2N1C(=O)CNC(=O)c1ccnc2ccc(Br)cc12             yes
11  N#C[C@@H]1C[C@@H]2C[C@@H]2N1C(=O)CNC(=O)c1ccnc2cc(C(F)(F)F)ccc12             yes

----------
assay: Metabolic stability in human liver microsomes (HLM); type: in vitro ADME
Mark 1 only for microsomal CLint values smaller than 40 µL/min/mg; exact matches and larger values are -1.

>>> print(df.to_string())
                                   molecule  category_label
0  CC(C)(O)c1ccc2c(C(=O)NCC(=O)N3[C@H](C#N)C[C@@H]4C[C@@H]43)ccnc2c1               1
1  CC(C)Oc1ccc2nccc(C(=O)NCC(=O)N3[C@H](C#N)C[C@@H]4C[C@@H]43)c2c1              -1
2  Cc1ccc2c(C(=O)NCC(=O)N3[C@H](C#N)C[C@@H]4C[C@@H]43)ccnc2c1               1
3  Cc1cc(C(=O)NCC(=O)N2[C@H](C#N)C[C@@H]3C[C@@H]32)c2cc(Br)ccc2n1               1
4  N#C[C@@H]1C[C@@H]2C[C@@H]2N1C(=O)CNC(=O)c1ccnc2ccc(OCC3CC3)cc12              -1
5  CC(OC(F)(F)F)c1ccc2c(C(=O)NCC(=O)N3[C@H](C#N)C[C@@H]4C[C@@H]43)ccnc2c1 (stereo partly shown)              -1
6  Cc1cc(C(=O)NCC(=O)N2[C@H](C#N)C[C@@H]3C[C@@H]32)c2cc(Cl)ccc2n1               1
